- target_system: EGFR-L858R/C797S (H1975-clone #8 cells) (Homo sapiens, UniProt P00533, C797S/L858R)
- Construct: expressed in transfected cells; host or cells: H1975 (endogenous EGFR knocked out, clone #8)
- Sequence (P00533 25-1210 C797S/L858R): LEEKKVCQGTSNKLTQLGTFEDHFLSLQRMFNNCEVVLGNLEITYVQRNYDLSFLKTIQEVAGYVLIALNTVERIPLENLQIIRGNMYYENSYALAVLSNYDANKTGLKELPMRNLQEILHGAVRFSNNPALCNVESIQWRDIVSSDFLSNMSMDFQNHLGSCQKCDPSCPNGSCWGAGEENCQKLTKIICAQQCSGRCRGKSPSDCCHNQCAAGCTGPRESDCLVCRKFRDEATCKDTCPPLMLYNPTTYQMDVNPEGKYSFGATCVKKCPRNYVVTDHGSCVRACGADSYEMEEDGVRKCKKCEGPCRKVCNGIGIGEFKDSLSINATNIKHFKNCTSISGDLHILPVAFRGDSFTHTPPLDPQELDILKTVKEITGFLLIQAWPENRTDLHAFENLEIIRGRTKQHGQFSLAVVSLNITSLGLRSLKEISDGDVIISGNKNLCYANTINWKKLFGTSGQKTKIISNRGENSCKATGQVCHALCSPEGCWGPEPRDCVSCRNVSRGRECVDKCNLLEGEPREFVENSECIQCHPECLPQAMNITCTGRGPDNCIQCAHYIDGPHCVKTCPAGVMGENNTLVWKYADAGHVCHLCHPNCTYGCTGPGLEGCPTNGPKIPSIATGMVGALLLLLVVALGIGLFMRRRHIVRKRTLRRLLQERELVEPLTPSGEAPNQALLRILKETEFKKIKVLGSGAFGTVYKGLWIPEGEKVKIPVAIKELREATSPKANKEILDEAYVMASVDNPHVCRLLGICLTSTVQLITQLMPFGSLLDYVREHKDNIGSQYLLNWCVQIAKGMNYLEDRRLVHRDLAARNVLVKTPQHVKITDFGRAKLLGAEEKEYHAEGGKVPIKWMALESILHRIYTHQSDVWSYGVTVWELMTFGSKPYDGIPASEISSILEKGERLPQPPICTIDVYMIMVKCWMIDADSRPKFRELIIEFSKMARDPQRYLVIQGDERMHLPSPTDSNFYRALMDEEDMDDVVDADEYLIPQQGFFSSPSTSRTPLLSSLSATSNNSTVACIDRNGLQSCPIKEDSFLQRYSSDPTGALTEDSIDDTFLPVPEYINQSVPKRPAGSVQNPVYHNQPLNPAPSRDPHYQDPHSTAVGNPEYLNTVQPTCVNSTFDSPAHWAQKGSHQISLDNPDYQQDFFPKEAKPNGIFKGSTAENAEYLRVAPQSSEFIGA
- protocol_summary: Cell degradation of EGFR, HTRF assay, H1975-clone#8 (L858R/C797S) cells
- Assay type: cell-based
- test_context: 16 h treatment, EGFR degradation
Can you tell me DC50 for the items I'm about to list?
One number for each entry, in nM.

INSERT INTO assay_data (compound_smiles, measured_result) VALUES
  ('COC[C@H]1CN(c2ccc3c(c2)N2C[C@@H]4CC[C@H](COc5c(c(C)nn5C)-c5cc(cc(Cl)n5)C(=O)/N=C/2N3)C4)CCN1C1CCN(c2cc(F)c([C@H]3CCC(=O)NC3=O)c(F)c2)CC1', 10.7),
  ('COC[C@@H]1CN(c2cc3c(cc2C)N/C2=N\C(=O)c4cc(C)nc(c4)-c4c(C)nn(C)c4OC[C@H]4CC[C@H](C4)CN23)CCN1C1CCN(c2cc(F)c([C@H]3CCC(=O)NC3=O)c(F)c2)CC1', 4.31),
  ('COC[C@H]1CN(c2ccc3c(c2)N2CC4CC[C@H](COc5c(c(C)nn5C)-c5cc(cc(C)n5)C(=O)/N=C/2N3)C4)CCN1C1CCN(c2cc(F)c([C@H]3CCC(=O)NC3=O)c(F)c2)CC1', 2.28);

Short answer please: DC50, EGFR-L858R/C797S (H1975-clone #8 cells) (Homo sapiens, UniProt P00533, C797S/L858R), entry `COC[C@@H]1CN(c2ccc3c(c2)N2CC4CC[C@H](COc5c(c(C(F)F)nn5C)-c5cc(cc(C)n5)C(=O)/N=C/2N3)C4)CCN1C1CCN(c2cc(F)c([C@H]3CCC(=O)NC3=O)c(F)c2)CC1`
4.91

All figures here come from patent US20240425523A1.
